Taken from patent US7964624B1.

Give measured Ki for each item. Keep answers brief.
measured target: full-length hepatitis C viral protein NS3•4A (Hepatitis C virus genotype 1a)
Construct: hexa-histidine (N); made in house; host or cells: Sf9 insect cells (baculovirus, pVL1392)
procedure details: biochemical
Set-up: species or system HCV sub-type strain 1a
condition context: Enzyme Assay 2 (HCV NS3 Peptide Cleavage Assay) activity, apparent Ki class

Record CCC[C@H](NC(=O)[C@@H]1C[C@]2(CC(c3cccc(Cl)c3)=NO2)CN1C(=O)[C@@H](NC(=O)CC1CCCCC1)C(C)(C)C)C(=O)C(=O)Nc1ccc(C)c(C#N)c1 . Reported Ki: 0.1 to 0.5 µM

Record CCC[C@H](NC(=O)[C@@H]1C[C@]2(CC(c3cc(Cl)c(OC)cc3OC)=NO2)CN1C(=O)[C@@H](NC(=O)CC1CCCCC1)C(C)(C)C)C(=O)C(=O)NC1CC1 . Reported Ki: < 0.1 µM

Record CCC[C@H](NC(=O)[C@@H]1C[C@]2(CC(c3cccc4cccnc34)=NO2)CN1C(=O)[C@@H](NC(=O)OC1CCCC1)C(C)(C)C)C(=O)C(=O)NC1CC1 . Reported Ki: 0.1 to 0.5 µM

Record CCC[C@H](NC(=O)[C@@H]1C[C@]2(CC(c3cccc(Cl)c3)=NO2)CN1C(=O)[C@@H](NC(=O)CC1CCCCC1)C(C)(C)C)C(=O)C(=O)N1CC(F)(F)C1 . Reported Ki: < 0.1 µM

Record CCC[C@H](NC(=O)[C@@H]1C[C@]2(CC(c3cccc(Cl)c3)=NO2)CN1C(=O)[C@H](NC(=O)CC1CCCCC1)C(C)(C)C)C(=O)C(=O)N(CC)CC . Reported Ki: > 0.5 µM

Record CCC[C@H](NC(=O)[C@@H]1C[C@]2(CC(c3cc(Cl)c(OC)cc3C)=NO2)CN1C(=O)[C@@H](NC(=O)CC1CCCCC1)C(C)(C)C)C(=O)C(=O)NC . Reported Ki: 0.1 to 0.5 µM

Record CCC[C@H](NC(=O)[C@@H]1C[C@]2(CC(c3ccc(F)c(Cl)c3)=NO2)CN1C(=O)[C@@H](NC(=O)CC1CCCCCC1)C(C)(C)C)C(=O)C(=O)NC1CC1 . Reported Ki: < 0.1 µM

Record CCC[C@H](NC(=O)[C@@H]1C[C@]2(CC(c3cccc(Cl)c3)=NO2)CN1C(=O)[C@@H](NC(=O)CC1CCCCC1)C(C)(C)C)C(=O)C(=O)NCC1(c2ccc(OC)cc2)CCOCC1 . Reported Ki: > 0.5 µM

Record CCC[C@H](NC(=O)[C@@H]1C[C@]2(CC(c3cccc(Cl)c3)=NO2)CN1C(=O)[C@@H](NC(=O)Cc1cncc(Br)c1)C(C)(C)C)C(=O)C(=O)NC1CC1 . Reported Ki: < 0.1 µM

Record CCC[C@H](NC(=O)[C@@H]1C[C@]2(CC(c3cccc(Cl)c3)=NO2)CN1C(=O)[C@@H](NC(=O)CC1CCCCC1)C(C)(C)C)C(=O)C(=O)N(C)CCC . Reported Ki: > 0.5 µM

====

measured target: full-length hepatitis C viral protein NS3•4A (Hepatitis C virus genotype 1a)
Construct: hexa-histidine (N); made in house; host or cells: Sf9 insect cells (baculovirus, pVL1392)
procedure details: biochemical
Design: species or system HCV sub-type strain 1a
condition context: Enzyme Assay 2 (HCV NS3 Peptide Cleavage Assay) activity, apparent Ki class
pKi: −log10 of the molar value.
result type: pKi

Hey, full-length hepatitis C viral protein NS3•4A (Hepatitis C virus genotype 1a) data for CCC[C@H](NC(=O)[C@@H]1C[C@]2(CC(c3cccc(Cl)c3)=NO2)CN1C(=O)[C@@H](NC(=O)CC1CC2CCC1C2)C(C)(C)C)C(=O)C(=O)NC1CC1 (some centres unmarked) : pKi came out at > 7.00

Hey, full-length hepatitis C viral protein NS3•4A (Hepatitis C virus genotype 1a) data for CCC[C@H](NC(=O)[C@@H]1C[C@]2(CC(c3cccc(Cl)c3)=NO2)CN1C(=O)[C@@H](NS(=O)(=O)c1ccc(OC)cc1)C(C)C)C(=O)C(=O)NC1CC1 : pKi came out at 6.30 to 7.00

Hey, full-length hepatitis C viral protein NS3•4A (Hepatitis C virus genotype 1a) data for CCC[C@H](NC(=O)[C@@H]1C[C@]2(CC(c3cc(Cl)ccc3OC)=NO2)CN1C(=O)[C@@H](NC(=O)OC1CCCC1)C(C)(C)C)C(=O)C(=O)NC1CC1 : pKi came out at > 7.00

Hey, full-length hepatitis C viral protein NS3•4A (Hepatitis C virus genotype 1a) data for CCC[C@H](NC(=O)[C@@H]1C[C@]2(CC(c3cc(Cl)c4c(c3)CCCN4C)=NO2)CN1C(=O)[C@@H](NC(=O)CC1CCCCC1)C(C)(C)C)C(=O)C(=O)NC1CC1 : pKi came out at > 7.00

Hey, full-length hepatitis C viral protein NS3•4A (Hepatitis C virus genotype 1a) data for CCC[C@H](NC(=O)[C@@H]1C[C@]2(CC(c3cccc4cccnc34)=NO2)CN1C(=O)[C@@H](NC(=O)OC1CCCC1)C(C)(C)C)C(=O)C(=O)NC : pKi came out at 6.30 to 7.00

Hey, full-length hepatitis C viral protein NS3•4A (Hepatitis C virus genotype 1a) data for CCC[C@H](NC(=O)[C@@H]1C[C@]2(CC(c3cc(Cl)c(OC)cc3OC)=NO2)CN1C(=O)[C@@H](NC(=O)OC(C)(C)C)C(C)(C)C)C(=O)C(=O)NC1CC1 : pKi came out at > 7.00

Hey, full-length hepatitis C viral protein NS3•4A (Hepatitis C virus genotype 1a) data for CCC[C@H](NC(=O)[C@@H]1C[C@]2(CC(c3cccc(Cl)c3)=NO2)CN1C(=O)[C@@H](NC(=O)CC1CCCCC1)C(C)(C)C)C(=O)C(=O)NC1(C(=O)OC)CC1 : pKi came out at < 6.30

Hey, full-length hepatitis C viral protein NS3•4A (Hepatitis C virus genotype 1a) data for CNC(=O)C(=O)[C@H](CC1CC1)NC(=O)[C@@H]1C[C@]2(CC(c3cc(C)c(OC)c(C)c3)=NO2)CN1C(=O)[C@@H](NC(=O)CC1CCCCC1)C(C)(C)OC : pKi came out at > 7.00

Hey, full-length hepatitis C viral protein NS3•4A (Hepatitis C virus genotype 1a) data for CCC[C@H](NC(=O)[C@@H]1C[C@]2(CC(c3ccc(F)c(Cl)c3)=NO2)CN1C(=O)[C@@H](NC(=O)CC1CCCCC1)C(C)(C)C)C(=O)C(=O)NC : pKi came out at > 7.00

Hey, full-length hepatitis C viral protein NS3•4A (Hepatitis C virus genotype 1a) data for CNC(=O)C(=O)[C@H](CC1CC1)NC(=O)[C@@H]1C[C@]2(CC(c3cc(Cl)c(OC)cc3C)=NO2)CN1C(=O)[C@@H](NC(=O)CC1CCCCC1)C(C)(C)C : pKi came out at 6.30 to 7.00

Hey, full-length hepatitis C viral protein NS3•4A (Hepatitis C virus genotype 1a) data for CCC[C@H](NC(=O)[C@@H]1C[C@]2(CC(c3cccc(Cl)c3)=NO2)CN1C(=O)[C@@H](NC(=O)CC1CCCCC1)C(C)(C)C)C(=O)C(=O)Nc1ccon1 : pKi came out at < 6.30

====

measured target: full-length hepatitis C viral protein NS3•4A (Hepatitis C virus genotype 1a, UniProt P27958)
Construct: hexa-histidine (N); made in house; host or cells: Sf9 insect cells (baculovirus, pVL1392)
procedure details: biochemical
Design: species or system HCV sub-type strain 1a
condition context: Enzyme Assay 2 (HCV NS3 Peptide Cleavage Assay) activity, apparent Ki class
result type: Ki

Record COc1cc(OC)c(C2=NO[C@]3(C2)C[C@@H](C(=O)N[C@@H](CC2CC2)C(=O)C(N)=O)N(C(=O)[C@@H](NC(=O)CC(C)(C)C)C(C)(C)C)C3)cc1Cl [Compound 104] . Reported Ki: < 100 nM

Record CCC[C@H](NC(=O)[C@@H]1C[C@]2(CC(c3cccc(Cl)c3)=NO2)CN1C(=O)CC(NS(=O)(=O)c1ccc(OC)cc1)C(C)C)C(=O)C(=O)NC1CC1 (some centres unmarked) [Compound 395] . Reported Ki: > 500 nM

Record CCC[C@H](NC(=O)[C@@H]1C[C@]2(CC(c3cccc(Cl)c3)=NO2)CN1C(=O)[C@@H](NC(=O)CC1CCN(C(C)=O)CC1)C(C)(C)C)C(=O)C(=O)NC1CC1 [Compound 304] . Reported Ki: < 100 nM

Record CCC[C@H](NC(=O)[C@@H]1C[C@]2(CC(c3cc(Cl)c(OC)cc3OC)=NO2)CN1C(=O)[C@@H](NC(=O)CC1CCOCC1)C(C)(C)C)C(=O)C(=O)NC1CC1 [Compound 326] . Reported Ki: 100 to 500 nM

Record CCC[C@H](NC(=O)[C@@H]1C[C@]2(CC(c3cc(Cl)cnc3OC)=NO2)CN1C(=O)[C@@H](NC(=O)CC1CCCCC1)C(C)(C)C)C(=O)C(=O)NC1CC1 [Compound 165] . Reported Ki: < 100 nM
